test system: wheat (Triticum aestivum); assay: Test A pre-/postemergence: wheat; format: in vivo; conditions: Preemergence, 125 g ai/ha; 0 to 100 scale where 0 is no effect and 100 is complete control
Could you please mark label 1 for values of Plant response rating, Wheat below 10 and label 0 for values at or above it?

Bench note: check whether Cc1nn(-c2ccc(C(F)(F)F)cc2)nc1Oc1cc(C(F)(F)F)nn1C shows Plant response rating, Wheat below 10
label 1

Would you kindly verify if Plant response rating, Wheat of Cc1cc(Oc2nn(-c3ccc(F)cc3)nc2C)ccn1 is strictly less than 10?
label 1

Threshold test, Plant response rating, Wheat < 10: Cc1nn(-c2ccc(F)cc2F)nc1Oc1ccnc(C(F)(F)F)c1
label 1

Say whether its Plant response rating, Wheat is strictly beneath 10. Entry: CCCc1nn(-c2ccc(F)cc2)nc1Oc1ccnc(C(F)(F)F)c1
label 0

is_below(Plant response rating, Wheat, 10) for FCc1nn(-c2ccc(F)cc2)nc1Oc1ccnc(C(F)(F)F)c1 ?
label 0

I'd appreciate it if you could check whether Cc1nn(-c2ccc(F)cc2)nc1Oc1cc(C(F)(F)F)nn1C has Plant response rating, Wheat smaller than 10.
label 1

Lab note: confirm whether the reported Plant response rating, Wheat for this compound is below 10, equality not counting. compound: Cc1nn(-c2ccnc(Cl)c2)nc1Cc1ccnc(C(F)(F)F)c1
label 1

Regarding Cc1nn(-c2ccc(F)cc2)nc1Oc1ccnc(C(F)(F)F)n1 , kindly confirm whether its Plant response rating, Wheat is beneath 10.
label 1

Quick check: does COc1nn(-c2ccc(C(F)(F)F)cc2)nc1Cc1ccnc(C(F)F)c1 have Plant response rating, Wheat under 10?
label 0

Hi there! Is Plant response rating, Wheat for CCCCc1nn(-c2ccc(C(F)(F)F)cc2)nc1Oc1ccnc(C(F)(F)F)c1 below 10, do you know?
label 1

Plant response rating, Wheat strictly < 10 for this compound? Cc1nn(-c2ccc(F)cc2)nc1Oc1cccc(C(F)(F)F)n1
label 1

# strict comparison: is reported Plant response rating, Wheat < 10? input = CC(C)COc1nn(-c2ccc(C(F)(F)F)cc2)nc1Cc1ccnc(C(F)(F)F)c1
label 1

Determine whether this compound shows Plant response rating, Wheat lower than 10 (ties excluded): CCCCOc1nn(-c2ccc(C(F)(F)F)cc2)nc1Cc1ccnc(C(F)(F)F)c1
label 1

Below 10 on Plant response rating, Wheat? Entry CCOc1nn(-c2ccc(Cl)cc2)nc1Cc1ccnc(C(F)(F)F)c1
label 0

Problem: For the compound CCOc1nn(-c2ccc(F)cc2F)nc1Cc1ccnc(C(F)(F)F)c1 , is Plant response rating, Wheat under 10?
label 0

Take the compound CC(C)Oc1nn(-c2ccc(C(F)(F)F)cc2)nc1Cc1ccnc(C(F)(F)F)c1 and say whether its Plant response rating, Wheat is less than 10.
label 1

State whether 10 exceeds Plant response rating, Wheat recorded for CCc1nn(-c2ccc(C(F)(F)F)cc2)nc1Cn1cnc(C(F)(F)F)c1Cl .
label 1

# TODO verify Plant response rating, Wheat < 10 strictly for this compound: CCCc1nn(-c2ccc(F)cc2F)nc1Oc1ccnc(C(F)(F)F)c1
label 0

Please check: Plant response rating, Wheat for CCc1nn(-c2ccc(F)cc2F)nc1Oc1ccnc(C(F)F)c1 , strictly under 10 or not?
label 1

* * *

tested on: canarygrass (Phalaris minor); assay: Test D pre-/postemergence: canarygrass; assay type: in vivo; details: Postemergence, 31 g ai/ha; scale 0 to 100 (0 no effect, 100 complete control)
Quantity name: Plant response rating: Canarygrass
Lab note: record just the number, no unit beside it.

Please report the recorded Plant response rating: Canarygrass for COc1nn(-c2ccc(C(F)(F)F)cc2)nc1Cc1ccnc(C(F)F)c1 .
25

Could you share which Plant response rating: Canarygrass value was measured for CCOc1nn(-c2ccc(F)cc2)nc1Cc1ccnc(C(F)(F)F)c1 ?
70

Entry COc1nn(-c2ccc(C(F)(F)F)cc2)nc1Cc1ccnc(C(F)(F)F)c1 has what Plant response rating: Canarygrass?
35

Look up Plant response rating: Canarygrass for this molecule: Cc1nn(-c2ccc(C(F)(F)F)c(F)c2)nc1Oc1ccnc(C(F)(F)F)c1
30

* * *

Provide the reported Plant response rating, Deadnettle of each item.
test system: deadnettle (henbit deadnettle, Lamium amplexicaule); experiment: Test C postemergence: deadnettle; type: in vivo; conditions: 31 g ai/ha, scale 0 to 100 (0 no effect, 100 complete control)
API note: the answer field is a bare number with no unit suffix.

Field request: Plant response rating, Deadnettle | item: FC(F)(F)c1ccc(-n2nc(Cl)c(Cc3ccnc(C(F)(F)F)c3)n2)cc1
40

Please report the recorded Plant response rating, Deadnettle for FC(F)Oc1nn(-c2ccc(C(F)(F)F)cc2)nc1Cc1ccnc(C(F)(F)F)c1 .
98

// Plant response rating, Deadnettle lookup, key: CCOc1nn(-c2ccc(F)cc2)nc1Cc1ccnc(C(F)(F)F)c1
100

Can you look up the measured Plant response rating, Deadnettle of Cc1nn(-c2ccc(C(F)(F)F)cn2)nc1Cc1cccc(C(F)(F)F)c1 for me?
75

Plant response rating, Deadnettle for FC(F)(F)COc1nn(-c2ccc(C(F)(F)F)cc2)nc1Cc1ccnc(C(F)(F)F)c1 ?
98

* * *

tested on: velvetleaf (Abutilon theophrasti); assay: Test C pre-/postemergence: velvetleaf; assay type: in vivo; settings: Postemergence, 62 g ai/ha; scale 0 to 100 (0 no effect, 100 complete control)
Would you please tag the item MET when its Plant response rating, Velvetleaf is 60 or above, and NOT MET when it is below?

Determine whether this compound has Plant response rating, Velvetleaf no lower than 60: COc1nn(-c2ccc(C(F)(F)F)cc2)nc1Cc1ccnc(C(F)F)c1
MET

Does the reported Plant response rating, Velvetleaf for Cc1nn(-c2ccnc(Cl)c2)nc1Cc1ccnc(C(F)(F)F)c1 fall at or above the 60 mark?
NOT MET

Reported Plant response rating, Velvetleaf at or above 60? CCOc1nn(-c2ccc(C(F)(F)F)cc2)nc1Cc1ccnc(C(F)(F)F)c1
NOT MET

Is reported Plant response rating, Velvetleaf greater than or equal to 60 here: CCc1nn(-c2ccc(C(F)(F)F)cc2)nc1Oc1ccnc(C(F)(F)F)c1
MET

Identify whether the reported Plant response rating, Velvetleaf of the following compound is 60 or greater: FC(F)Oc1nn(-c2ccc(C(F)(F)F)cc2)nc1Cc1ccnc(C(F)(F)F)c1
NOT MET

* * *

test system: barnyardgrass (Echinochloa crus-galli); assay: Test C flooded paddy test: barnyardgrass; format: in vivo; settings: Flood (flooded paddy test), 62 g ai/ha; visual rating after 13 to 15 days, scale 0 to 100 (0 no effect, 100 complete control)
What Plant response rating, Barnyardgrass was measured for each of the following?
Keep it simple and answer with nothing but the number.

Requested read-out: Plant response rating, Barnyardgrass. Entry: Cc1nn(-c2ccc(F)cc2)nc1Cn1c(Cl)nc(C(F)(F)F)c1Cl [Compound 20]
0

May I ask what Plant response rating, Barnyardgrass has been recorded for Cc1nn(-c2ccc(Cl)nc2)nc1C(=O)c1cccc(C(F)(F)F)c1 [Compound 72] ?
0

Any idea what Plant response rating, Barnyardgrass was measured for Cc1nn(-c2ccc(C(F)(F)F)cc2)nc1Oc1cncc(C(F)(F)F)c1 [Compound 37] ?
10

* * *

tested on: lambsquarters (Chenopodium album); test: Test C pre-/postemergence: lambsquarters; assay type: in vivo; conditions: Postemergence, 125 g ai/ha; scale 0 to 100, 0 no effect, 100 complete control
I'd be grateful if you could share measured Plant response rating, Lambsquarters for these entries.
Note: the reply should be a number with no unit written.

What value of Plant response rating, Lambsquarters has been reported for the following compound? CCCc1nn(-c2ccc(F)cc2F)nc1Oc1ccnc(C(F)(F)F)c1
85

Need Plant response rating, Lambsquarters of CCCc1nn(-c2ccc(F)cc2)nc1Oc1ccnc(C(F)(F)F)c1 , thanks.
95

Requested field: Plant response rating, Lambsquarters. Item: CCc1nn(-c2ccc(F)c(F)c2)nc1Oc1ccnc(C(F)(F)F)c1
95

Consider the compound shown here: CCc1nn(-c2ccc(C(F)(F)F)c(F)c2)nc1Oc1ccnc(C(F)(F)F)c1 What is its recorded Plant response rating, Lambsquarters?
95

Quick one: Plant response rating, Lambsquarters for Cc1nn(-c2ccc(C(F)(F)F)cn2)nc1Oc1ccnc(C(F)(F)F)c1 ?
98

Quick one: Plant response rating, Lambsquarters of Cc1nn(-c2ccc(F)c(C(F)(F)F)c2)nc1Cc1ccnc(C(F)(F)F)c1 ?
98

# input compound: COc1nn(-c2ccc(C(F)(F)F)cc2)nc1Cc1ccnc(C(F)(F)F)c1 ; wanted: its Plant response rating, Lambsquarters
100

* * *

system: ryegrass, Italian (Italian ryegrass, Lolium multiflorum); assay: Test C pre-/postemergence: ryegrass, Italian; type: in vivo; conditions: Preemergence, 31 g ai/ha; scale 0 (no effect) to 100 (complete control)
Quantity name: Plant response rating, Ryegrass, Italian

Can you look up the measured Plant response rating, Ryegrass, Italian of CCOc1nn(-c2ccc(C(F)(F)F)cc2)nc1Cc1ccnc(C(F)(F)F)c1 [Compound 164] for me?
5

Name the recorded Plant response rating, Ryegrass, Italian for CCc1nn(-c2ccc(F)c(F)c2)nc1Oc1ccnc(C(F)(F)F)c1 [Compound 171] .
10

For CCOc1nn(-c2ccc(Cl)cc2)nc1Cc1ccnc(C(F)(F)F)c1 [Compound 188] , what is its reported Plant response rating, Ryegrass, Italian?
60

Could you share which Plant response rating, Ryegrass, Italian value was measured for CCc1nn(-c2ccc(C(F)(F)F)c(F)c2)nc1Oc1ccnc(C(F)(F)F)c1 [Compound 183] ?
65

Need Plant response rating, Ryegrass, Italian, item CCCc1nn(-c2ccc(F)c(F)c2)nc1Oc1ccnc(C(F)(F)F)c1 [Compound 172]
100

Reference for the values: patent US9302999B2
